tested.target: IKZF2 (Helios) (Homo sapiens, UniProt Q96SW2+Q9UKS7)
Construct: endogenous in cells; host or cells: MOLT4 (CRISPR/Cas knock-in of HiBiT at the endogenous IKZF2 locus)
Sequence (Q9UKS7 whole entry): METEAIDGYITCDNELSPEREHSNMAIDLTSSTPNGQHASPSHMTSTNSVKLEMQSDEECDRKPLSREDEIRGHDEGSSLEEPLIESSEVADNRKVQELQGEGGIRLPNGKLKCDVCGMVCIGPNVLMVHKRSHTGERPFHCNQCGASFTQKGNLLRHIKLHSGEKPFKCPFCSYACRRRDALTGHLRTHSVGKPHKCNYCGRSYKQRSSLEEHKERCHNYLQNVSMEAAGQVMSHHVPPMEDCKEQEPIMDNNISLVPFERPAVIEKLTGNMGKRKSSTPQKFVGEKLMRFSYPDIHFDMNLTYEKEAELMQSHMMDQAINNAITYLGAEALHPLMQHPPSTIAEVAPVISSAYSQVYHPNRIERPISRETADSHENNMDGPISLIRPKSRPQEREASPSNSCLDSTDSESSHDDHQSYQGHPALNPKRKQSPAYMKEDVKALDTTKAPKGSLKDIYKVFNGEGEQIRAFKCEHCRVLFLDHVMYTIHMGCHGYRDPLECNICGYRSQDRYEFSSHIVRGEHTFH
Sequence (Q96SW2 whole entry): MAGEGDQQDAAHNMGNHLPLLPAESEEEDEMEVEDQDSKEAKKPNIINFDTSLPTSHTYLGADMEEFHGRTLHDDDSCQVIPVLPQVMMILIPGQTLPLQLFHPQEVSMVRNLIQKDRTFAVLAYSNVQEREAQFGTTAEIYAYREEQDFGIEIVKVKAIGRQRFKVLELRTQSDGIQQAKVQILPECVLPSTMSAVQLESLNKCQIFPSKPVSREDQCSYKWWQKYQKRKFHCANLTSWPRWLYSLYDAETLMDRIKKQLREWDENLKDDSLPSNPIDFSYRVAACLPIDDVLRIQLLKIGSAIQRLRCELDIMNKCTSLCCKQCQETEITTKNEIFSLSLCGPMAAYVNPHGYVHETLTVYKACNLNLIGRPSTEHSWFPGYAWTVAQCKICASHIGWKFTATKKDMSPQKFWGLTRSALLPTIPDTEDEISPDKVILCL
Sequence (Q16531 whole entry partner): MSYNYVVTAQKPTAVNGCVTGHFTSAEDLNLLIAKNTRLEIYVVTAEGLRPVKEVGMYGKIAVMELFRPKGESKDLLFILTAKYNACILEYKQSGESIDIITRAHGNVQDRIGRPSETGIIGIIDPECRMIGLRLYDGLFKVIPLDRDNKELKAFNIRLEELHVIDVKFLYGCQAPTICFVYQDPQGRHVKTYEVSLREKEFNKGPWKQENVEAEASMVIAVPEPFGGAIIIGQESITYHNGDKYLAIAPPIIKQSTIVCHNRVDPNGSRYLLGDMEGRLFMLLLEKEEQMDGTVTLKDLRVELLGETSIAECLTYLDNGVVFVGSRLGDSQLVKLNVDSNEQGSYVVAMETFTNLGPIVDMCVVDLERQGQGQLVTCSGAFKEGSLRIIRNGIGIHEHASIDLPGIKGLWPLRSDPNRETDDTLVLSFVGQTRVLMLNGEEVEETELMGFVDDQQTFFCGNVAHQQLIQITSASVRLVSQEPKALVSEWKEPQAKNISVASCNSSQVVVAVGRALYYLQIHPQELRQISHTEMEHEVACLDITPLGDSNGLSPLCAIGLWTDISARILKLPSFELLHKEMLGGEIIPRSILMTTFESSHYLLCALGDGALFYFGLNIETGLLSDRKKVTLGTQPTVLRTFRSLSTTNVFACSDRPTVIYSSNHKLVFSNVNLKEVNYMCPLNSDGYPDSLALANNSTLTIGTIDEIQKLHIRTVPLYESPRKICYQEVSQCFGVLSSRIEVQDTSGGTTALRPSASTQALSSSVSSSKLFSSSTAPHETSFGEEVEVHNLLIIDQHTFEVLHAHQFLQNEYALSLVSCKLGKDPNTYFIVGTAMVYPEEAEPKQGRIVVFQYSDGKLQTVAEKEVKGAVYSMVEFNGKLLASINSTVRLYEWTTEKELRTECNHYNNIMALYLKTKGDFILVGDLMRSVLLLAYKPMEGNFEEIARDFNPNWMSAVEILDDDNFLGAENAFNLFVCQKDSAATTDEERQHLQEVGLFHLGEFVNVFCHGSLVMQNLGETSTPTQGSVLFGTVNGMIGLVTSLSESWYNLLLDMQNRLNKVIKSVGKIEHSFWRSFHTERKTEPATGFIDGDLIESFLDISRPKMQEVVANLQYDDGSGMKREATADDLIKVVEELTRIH
measurement.description: HiBiT-IKZF2 degradation assay in MOLT4 cells
Format: cell-based
measurement.conditions: MOLT-4, 10 μM
Form field: inhibition at 10 µM (one value per entry).
The reply should contain only the number, in %.

For O=C1CCC(N2C(=O)c3ccc(C4=CCN(Cc5ccccc5)CC4)cc3C2=O)C(=O)N1 (centres unmarked) the molecule record lists inhibition at 10 µM as 30

For O=C1CCC(N2C(=O)c3ccc(C4(O)CCN(Cc5ccccc5C(F)(F)F)CC4)cc3C2=O)C(=O)N1 (centres unmarked) the molecule record lists inhibition at 10 µM as 57

For O=C1CCC(N2C(=O)c3ccc(C4(O)CCN(Cc5cccc(Nc6ccccn6)n5)CC4)cc3C2=O)C(=O)N1 (centres unmarked) the molecule record lists inhibition at 10 µM as 71

For O=C1CCC(N2C(=O)c3ccc(C4(O)CCN(Cc5cccc(Oc6ccc(F)cc6)c5)CC4)cc3C2=O)C(=O)N1 (centres unmarked) the molecule record lists inhibition at 10 µM as 77

More entries:
For O=C1CCC(N2C(=O)c3ccc(C4(O)CCN(Cc5ccccc5)CC4)cc3C2=O)C(=O)N1 (centres unmarked) the molecule record lists inhibition at 10 µM as 70
